# log10 IC50 per record follows
SUBJECT_OF_TEST: KIF18A (Homo sapiens (Human), UniProt Q8NI77)
Sequence (Q8NI77 1-467): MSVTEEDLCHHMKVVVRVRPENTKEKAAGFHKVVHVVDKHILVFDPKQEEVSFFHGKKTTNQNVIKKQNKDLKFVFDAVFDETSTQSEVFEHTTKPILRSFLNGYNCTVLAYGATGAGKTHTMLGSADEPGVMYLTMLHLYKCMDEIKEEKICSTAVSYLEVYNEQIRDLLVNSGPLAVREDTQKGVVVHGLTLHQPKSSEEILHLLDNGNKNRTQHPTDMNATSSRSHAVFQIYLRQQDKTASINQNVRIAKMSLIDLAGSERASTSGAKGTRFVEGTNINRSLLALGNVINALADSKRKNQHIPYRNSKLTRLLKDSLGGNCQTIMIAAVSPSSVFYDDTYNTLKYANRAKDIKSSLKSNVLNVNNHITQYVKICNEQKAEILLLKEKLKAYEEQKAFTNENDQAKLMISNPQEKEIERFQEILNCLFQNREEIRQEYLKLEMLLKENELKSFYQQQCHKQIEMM
// units: nM (pre-log); metric: IC50; scale: log10

Known log10 IC50 results, listed for orientation:
INSERT INTO measurements (molecule, readout_label, observed) VALUES
  ('Cc1cc(NC(=O)c2ccc(NS(=O)(=O)CCO)cc2N2CC3CCC(C3)C2)nc(N2CCC(F)(F)CC2)n1 [Compound 3]', 'log10 IC50', 1.30),
  ('O=C(Nc1cn2cncc2c(N2CCC(F)(F)CC2)n1)c1ccc(NS(=O)(=O)CCO)cc1N1CCC2(CC1)CC2 [Compound 27]', 'log10 IC50', 1.36),
  ('O=C(Nc1cn2cnnc2c(N2CCC(F)(F)CC2)n1)c1ccc(NS(=O)(=O)CCO)cc1N1CCC2(CC1)CC2 [Compound 24]', 'log10 IC50', 0.57),
  ('O=C(Nc1cc2ccsc2c(N2CCC(F)(F)CC2)n1)c1ccc(NS(=O)(=O)CCO)cc1N1CCC2(CC1)CC2 [Compound 15]', 'log10 IC50', 2.10),
  ('O=C(Nc1cc2nn[nH]c2c(N2CCC(F)(F)CC2)n1)c1ccc(NS(=O)(=O)CCO)cc1N1CCC2(CC1)CC2 [Compound 28]', 'log10 IC50', 1.52),
  ('CS(=O)(=O)Nc1ccc(C(=O)Nc2cn3ncnc3c(N3CCC(F)(F)CC3)n2)c(N2CCC3(CC2)CC3)c1 [Compound 57]', 'log10 IC50', 1.45);

What value of log10 IC50 has been recorded for this entry: CS(=O)(=O)Nc1ccc(C(=O)Nc2cc3nccnc3c(N3CCC(F)(F)CC3)n2)c(N2CCC3(CC2)CC3)c1 [Compound 70] 1.98

Which log10 IC50 value is on record for O=C(Nc1cc2ccccc2c(N2CCC(F)(F)CC2)n1)c1ccc(NS(=O)(=O)CCO)cc1N1CCC2(CC1)CC2 [Compound 6] ? 1.98

Give the measured log10 IC50 of Cn1ccc2cc(NC(=O)c3ccc(NS(=O)(=O)CCO)cc3N3CCC4(CC3)CC4)nc(N3CCC(F)(F)CC3)c21 [Compound 18] . 1.97

Entry O=C(Nc1cn2ccnc2c(N2CCC(F)(F)CC2)n1)c1cnc(NS(=O)(=O)CCO)cc1N1CCC2(CC1)CC2 [Compound 38] has what log10 IC50? 0.88

----------
EXPERIMENT_NOTES: Stability test in human liver microsomes
Assay type: in vitro ADME, humans
REPORTED_CONDITIONS: pH 7.4; human liver microsomes 0.5 mg/mL, 1.0 μM substrate; read-out: HLM 0.5 T½
The reader will find reported half-life at 1 μM values listed item by item below.

Sample answers from the record:
INSERT INTO measurements (smiles_representation, observed) VALUES
  ('O=C(Nc1cc2c(c(N3CCC(F)(F)CC3)n1)COC2)c1ccc(NS(=O)(=O)CCO)cc1N1CCC2(CC1)CC2', '0.933 h'),
  ('O=C(Nc1cc2ccccc2c(N2CCC(F)(F)CC2)n1)c1ccc(NS(=O)(=O)CCO)cc1N1CCC2(CC1)CC2', '> 2.42 h'),
  ('CS(=O)(=O)Nc1ccc(C(=O)Nc2cn3ccnc3c(N3CCC(F)(F)CC3)n2)c(N2CCC3(CC2)CC3)c1', '> 2.42 h'),
  ('O=C(Nc1cc2ccsc2c(N2CCC(F)(F)CC2)n1)c1ccc(NS(=O)(=O)CCO)cc1N1CCC2(CC1)CC2', '> 2.42 h'),
  ('CS(=O)(=O)Nc1ccc(C(=O)Nc2cc3cc[nH]c3c(N3CCC(F)(F)CC3)n2)c(N2CCC3(CC2)CC3)c1', '2.02 h'),
  ('O=C(Nc1cn2ccnc2c(N2CCC(F)(F)CC2)n1)c1ccc(NS(=O)(=O)CCO)cc1N1CCC2(CC1)CC2', '> 2.42 h');

Below: the item to evaluate.
Item O=C(Nc1cc2cccnc2c(N2CCC(F)(F)CC2)n1)c1ccc(NS(=O)(=O)CCO)cc1N1CCC2(CC1)CC2 has what recorded half-life at 1 μM? > 2.42 h
